Provenance of the data: ChEMBL document CHEMBL4325873

# Target: Casein kinase I isoform epsilon (Homo sapiens, UniProt P49674)
# Sequence (P49674 whole entry, canonical isoform): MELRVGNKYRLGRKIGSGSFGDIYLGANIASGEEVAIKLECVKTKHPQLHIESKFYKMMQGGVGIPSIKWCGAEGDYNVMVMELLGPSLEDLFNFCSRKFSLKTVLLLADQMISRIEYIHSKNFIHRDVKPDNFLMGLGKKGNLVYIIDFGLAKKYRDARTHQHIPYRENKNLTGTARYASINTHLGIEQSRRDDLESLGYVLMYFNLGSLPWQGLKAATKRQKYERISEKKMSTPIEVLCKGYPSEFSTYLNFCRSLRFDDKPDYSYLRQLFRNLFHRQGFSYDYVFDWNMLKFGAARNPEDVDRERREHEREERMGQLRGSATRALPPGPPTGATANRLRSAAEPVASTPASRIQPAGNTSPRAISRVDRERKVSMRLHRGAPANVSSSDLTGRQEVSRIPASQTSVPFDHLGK
# Method Description: Inhibition of human CK1 epsilon using casein as substrate after 2 hrs in presence of [33P]-ATP by scintillation counting analysis
pIC50: −log10 of the molar value.
Reported Endpoint: pIC50

Before answering, review these 3 worked examples.
# input Data request, read-out pIC50, for C[C@H]1CN(c2ccc3nc(-c4ccc(F)cc4)c(-c4ccncc4)n3n2)CCN1
# output 7.85

# input Data request, read-out pIC50, for c1ccc(-c2nc3ccc(N4CC5CC4CN5)nn3c2-c2ccncc2)cc1 (stereo not given)
# output 7.15

# input Data request, read-out pIC50, for Fc1ccc(-c2nc3ccc(N4CCC(N5CCCC5)CC4)nn3c2-c2ccncc2)cc1
# output 9.00

(1) CC1(C)CN(c2ccc3nc(-c4cc(F)cc(F)c4)c(-c4ccncc4)n3n2)CCN1
(2) CC1(C)CN(c2ccc3nc(-c4ccccc4)c(-c4ccncc4)n3n2)CCN1
(3) CC1(C)CN(c2ccc3nc(-c4ccc(F)cc4)c(-c4ccncc4)n3n2)CCN1
(4) c1ccc(-c2nc3ccc(N4CCC(N5CCCC5)CC4)nn3c2-c2ccncc2)cc1
(5) Cc1cc(C)cc(-c2nc3ccc(N4CCNC(C)(C)C4)nn3c2-c2ccncc2)c1
# input Arrange these compounds by their pIC50, starting with the largest number. Answer by naming the labels in the order asked.
# output 2, 5, 3, 4, 1

---

# Method Description: Drug metabolism in human liver microsomes
# Assay type: ADME, Microsome
# Protocol Conditions: read-out: Drug metabolism
Reported Endpoint: metabolised (%)

# input Data request, read-out metabolised, for CC1(C)CN(c2ccc3nc(-c4ccc(F)cc4)c(-c4ccncc4)n3n2)CCN1
# output 52

# input Data request, read-out metabolised, for Fc1ccc(-c2nc3ccc(N4CC5CC4CN5)nn3c2-c2ccncc2)cc1 (stereo not given)
# output 18

# input Data request, read-out metabolised, for Fc1ccc(-c2nc3ccc(N4CCC(N5CCCC5)CC4)nn3c2-c2ccncc2)cc1
# output 20

(P) CC1(C)CN(c2ccc3nc(-c4ccccc4)c(-c4ccncc4)n3n2)CCN1
(Q) CC1(C)CN(c2ccc3nc(-c4cc(F)cc(F)c4)c(-c4ccncc4)n3n2)CCN1
# input Which item exceeds the other in metabolised, P or Q ? Pick one; state its label.
# output P
(P: 57%, Q: 25%)

---

# Target: CYP3A4 (Homo sapiens)
# Sequence (P08684 whole entry): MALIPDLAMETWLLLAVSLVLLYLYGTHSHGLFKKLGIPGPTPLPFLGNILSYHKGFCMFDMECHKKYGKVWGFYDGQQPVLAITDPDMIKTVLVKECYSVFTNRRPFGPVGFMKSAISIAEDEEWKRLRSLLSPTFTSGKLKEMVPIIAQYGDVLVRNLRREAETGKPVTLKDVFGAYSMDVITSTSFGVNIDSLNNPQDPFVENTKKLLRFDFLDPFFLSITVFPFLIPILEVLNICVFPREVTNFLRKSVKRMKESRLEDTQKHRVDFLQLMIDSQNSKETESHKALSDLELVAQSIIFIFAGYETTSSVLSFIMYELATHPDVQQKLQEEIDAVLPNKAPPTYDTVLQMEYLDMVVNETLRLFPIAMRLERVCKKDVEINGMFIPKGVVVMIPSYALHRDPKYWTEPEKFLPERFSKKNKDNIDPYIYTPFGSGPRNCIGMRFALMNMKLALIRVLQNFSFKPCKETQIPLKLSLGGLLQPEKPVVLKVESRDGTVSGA
# Method Description: Drug metabolism in human liver microsomes assessed as CYP3A4-mediated drug metabolism in presence of ketoconazole
# Format: ADME
# Protocol Conditions: with ketoconazole, read-out: Drug metabolism
Reported Endpoint: metabolised (%)

Before answering, review these 7 worked examples.
# input Enter reported metabolised observed with CYP3A4 (Homo sapiens) for C[C@H]1CN(c2ccc3nc(-c4ccccc4)c(-c4ccncc4)n3n2)CCN1
# output 30

# input Enter reported metabolised observed with CYP3A4 (Homo sapiens) for Cc1cc(C)cc(-c2nc3ccc(N4CCNC(C)(C)C4)nn3c2-c2ccncc2)c1
# output 5

# input Enter reported metabolised observed with CYP3A4 (Homo sapiens) for c1ccc(-c2nc3ccc(N4CC5CC4CN5)nn3c2-c2ccncc2)cc1 (stereo not given)
# output 1

# input Enter reported metabolised observed with CYP3A4 (Homo sapiens) for CC1(C)CN(c2ccc3nc(-c4ccccc4)c(-c4ccncc4)n3n2)CCN1
# output 15

# input Enter reported metabolised observed with CYP3A4 (Homo sapiens) for CC1(C)CN(c2ccc3nc(-c4cc(F)cc(F)c4)c(-c4ccncc4)n3n2)CCN1
# output 15

# input Enter reported metabolised observed with CYP3A4 (Homo sapiens) for C[C@H]1CN(c2ccc3nc(-c4ccc(F)cc4)c(-c4ccncc4)n3n2)CCN1
# output 46

# input Enter reported metabolised observed with CYP3A4 (Homo sapiens) for c1ccc(-c2nc3ccc(N4CCC(N5CCCC5)CC4)nn3c2-c2ccncc2)cc1
# output 24.5

(1) Fc1ccc(-c2nc3ccc(N4CCC(N5CCCC5)CC4)nn3c2-c2ccncc2)cc1
(2) CC1(C)CN(c2ccc3nc(-c4ccc(F)cc4)c(-c4ccncc4)n3n2)CCN1
(3) Fc1ccc(-c2nc3ccc(N4CC5CC4CN5)nn3c2-c2ccncc2)cc1 (stereo not given)
# input Arrange these compounds by their metabolised, starting with the largest number. Answer by naming the labels in the order asked.
# output 2, 1, 3
